Could you please report measured IC50 for the items listed next?
assay.text: AA5225_IC50_IP (Table 4, assay code not explained)
condition.summary: internal assay code
Give bare numbers, in nM.

[
  {
    "compound": "Cc1ccc(C(=O)NC2CC2)cc1-c1ccc2c(-c3cc(F)c(S(C)(=O)=O)cc3C)nncc2c1 [Example 223]",
    "units.symbol": "nM",
    "IC50": 0.854
  },
  {
    "compound": "Cc1ccc(C(=O)Nc2ccnn2C)cc1-c1ccc2c([C@@](C)(O)C(F)(F)F)nncc2c1 [Example 251]",
    "units.symbol": "nM",
    "IC50": 0.913
  }
]

Next up:
query: What measured IC50 goes with Cc1ccc(C(=O)O)cc1-c1ccc2c(C(C)(C)O)nncc2c1 [Example 247] ?
result: 1000

###

assay.text: AA5225_IC50_IP (Table 4, assay code not explained)
condition.summary: internal assay code
Kindly supply the reported IC50 values for the records listed here.
Answers are plain numbers, in nM.

Illustrative cases are given below, each with its answer.
[
  {
    "molecule": "Cc1ccc(C(=O)NC2CC2)cc1-c1ccc2c([C@H](C)C(F)(F)F)nncc2c1 [Example 227b]",
    "IC50 [nM]": 1.61
  },
  {
    "molecule": "Cc1ccc(C(=O)NC2CC2)cc1-c1ccc2c([C@@H](C)C(F)(F)F)nncc2c1 [Example 227a]",
    "IC50 [nM]": 1.08
  },
  {
    "molecule": "Cc1ccc(C(=O)Nc2ccnn2C)cc1-c1ccc2c(C(C)(C)F)nncc2c1",
    "IC50 [nM]": 1.14
  },
  {
    "molecule": "Cc1c(F)cc(C(=O)NC2CC2)cc1-c1ccc2c(O[C@@H](C)C(F)(F)F)nncc2c1",
    "IC50 [nM]": 0.592
  },
  {
    "molecule": "Cc1c(F)cc(C(=O)NC2CC2)cc1-c1ccc2c(C(C)(C)F)nncc2c1",
    "IC50 [nM]": 0.696
  }
]

Provide IC50 values for the following items, in order.
1. CCNC(=O)c1ccc(C)c(-c2ccc3c(O[C@@H](C)C(F)(F)F)nncc3c2)c1
2. Cc1ccc(C(=O)NC2CC2)cc1-c1ccc2c(C(C)(C)F)nncc2c1
3. Cc1ccc(C(=O)NC2CC2)cc1-c1ccc2c([C@H](C)C(F)F)nncc2c1
4. [2H]c1c([2H])c(C(=O)NC2CC2)c([2H])c(-c2ccc3c(OC(C)C(F)(F)F)nncc3c2)c1C (centres unmarked)

result:
[1.02, 0.745, 1.03, 0.991]

###

assay.text: AA5225_IC50_IP (Table 4, assay code not explained)
condition.summary: internal assay code
measurement.kind: IC50 (nM)
Numbers only, in nM.

Guide cases for IC50, answers given:
[
  {
    "compound": "Cc1ccc(C(=O)NC2CC2)cc1-c1ccc2c([C@](C)(O)C(F)(F)F)nncc2c1 [Example 230]",
    "IC50 [nM]": 0.643
  },
  {
    "compound": "Cc1ccc(C(=O)NC2CC2)cc1-c1ccc2c(C(C)(C)O)nncc2c1 [Example 248]",
    "IC50 [nM]": 0.812
  }
]

Dear colleague, could you please provide IC50 for the compounds listed below?
1. Cc1c(F)cc(C(=O)NC2CC2)cc1-c1ccc2c(O[C@H](C)C(F)(F)F)nncc2c1 [Example 254]
2. Cc1ccc(C(=O)NC2CC2)cc1-c1ccc2c(C(C)(O)C(F)(F)F)nncc2c1 (stereo not shown) [Example 244]

result:
1. 0.769
2. 0.952

###

assay.text: AA2734_IC50_IP (Table 4, assay code not explained)
condition.summary: internal assay code
pIC50: −log10 of the molar value.
Outcome label depends on pIC50 relative to 9: at/above gives yes (1), below gives no (0).

The examples below pair each entry with its known result.
[
  {
    "compound": "Cc1ccc(C(=O)Nc2ccnn2C)cc1-c1ccc2c([C@@](C)(O)C(F)(F)F)nncc2c1",
    "assigned.class": "yes (1)"
  },
  {
    "compound": "Cc1ccc(C(=O)NC2CC2)cc1-c1ccc2c([C@@](C)(O)C(F)(F)F)nncc2c1",
    "assigned.class": "yes (1)"
  },
  {
    "compound": "Cc1ccc(C(=O)NC2CC2)cc1-c1ccc2c([C@](C)(O)C(F)(F)F)nncc2c1",
    "assigned.class": "yes (1)"
  },
  {
    "compound": "Cc1c(F)cc(C(=O)NC2CC2)cc1-c1ccc2c(O[C@@H](C)C(F)(F)F)nncc2c1",
    "assigned.class": "yes (1)"
  },
  {
    "compound": "Cc1c(F)cc(C(=O)NC2CC2)cc1-c1ccc2c(C(C)(C)F)nncc2c1",
    "assigned.class": "yes (1)"
  }
]

query: Quick check, pIC50 >= 9? Cc1ccc(C#N)cc1-c1ccc2c(O[C@H](C)C(F)(F)F)nncc2c1
result: no (0)

query: Then this compound: Cc1ccc(C(=O)Nc2ccnn2C)cc1-c1ccc2c([C@](C)(O)C(F)(F)F)nncc2c1
result: yes (1)

query: Record: Cc1ccc(C(=O)Nc2ccnn2C)cc1-c1ccc2c(C3(C(F)(F)F)CC3)nncc2c1
result: yes (1)

query: Do the same for Cc1ccc(C(=O)NC2CC2)cc1-c1ccc2c(C(C)(C)F)nncc2c1 please
result: yes (1)

query: Then Cc1ccc(C(=O)Nc2ccnn2C)cc1-c1ccc2c(C(C)(C)F)nncc2c1 ?
result: yes (1)

query: Input Cc1ccc(C(=O)NC2CC2)cc1-c1ccc2c([C@@H](C)C(F)(F)F)nncc2c1 [Example 227a]
result: yes (1)

query: And then Cc1ccc(C(=O)NC2CC2)cc1-c1ccc2c(-c3ccc(S(=O)(=O)C(F)(F)F)cc3C)nncc2c1 , what is it?
result: no (0)

query: What do you get for Cc1c(F)cc(C(=O)NC2CC2)cc1-c1ccc2c(O[C@H](C)C(F)(F)F)nncc2c1 ?
result: yes (1)

###

I'd appreciate it if you could supply log10(IC50) values for the items below.
assay.text: AA2734_IC50_IP (Table 4, assay code not explained)
condition.summary: internal assay code
Please interpret these as log10 of IC50 where IC50 is in nM.

Use these answered entries as a reference point.
[
  {
    "molecule": "Cc1ccc(C(=O)NC2CC2)cc1-c1ccc2c(C(C)(C)O)nncc2c1",
    "log10(IC50)": -0.08
  },
  {
    "molecule": "Cc1ccc(C(=O)NC2CC2)cc1-c1ccc2c([C@H](C)C(F)F)nncc2c1",
    "log10(IC50)": -0.74
  },
  {
    "molecule": "CNC(=O)c1ccc(C)c(-c2ccc3c(O[C@@H](C)C(F)(F)F)nncc3c2)c1",
    "log10(IC50)": 0.24
  }
]

Please look at the items below and tell me log10(IC50) for each one, in order.
1. Cc1ccc(C(=O)NC2CC2)cc1-c1ccc2c(C3(C(F)(F)F)CC3)nncc2c1
2. Cc1ccc(C(=O)NC2CC2)cc1-c1ccc2c(C(C)(O)C(F)(F)F)nncc2c1 (stereo not drawn)

result:
[-0.83, -0.36]

query: Fill in the blank: the reported log10(IC50) of Cc1ccc(C(=O)NC2CC2)cc1-c1ccc2c([C@H](C)C(F)(F)F)nncc2c1 [Example 227b] is ____.
result: -0.48

###

assay.text: AA5225_IC50_IP (Table 4, assay code not explained)
condition.summary: internal assay code
measurement.kind: IC50 (nM)
Numbers only, in nM.

// below: answered compounds
[
  {
    "compound": "Cc1ccc(C(=O)NC2CC2)cc1-c1ccc2c(C3(C(F)(F)F)CC3)nncc2c1 [Example 225]",
    "units.symbol": "nM",
    "IC50": 0.968
  },
  {
    "compound": "Cc1ccc(C(=O)Nc2ccnn2C)cc1-c1ccc2c(C3(C(F)(F)F)CC3)nncc2c1 [Example 226]",
    "units.symbol": "nM",
    "IC50": 1.12
  },
  {
    "compound": "Cc1ccc(C#N)cc1-c1ccc2c(O)nncc2c1 [Example 232]",
    "units.symbol": "nM",
    "IC50": 1.33
  }
]

Hey, quick one: what's IC50 for each of these?
1. Cc1ccc(C(=O)Nc2ccnn2C)cc1-c1ccc2c(C(C)(O)C(F)(F)F)nncc2c1 (centres unmarked) [Example 243]
2. Cc1ccc(C(=O)Nc2ccnn2C)cc1-c1ccc2c([C@](C)(O)C(F)(F)F)nncc2c1 [Example 250]

result:
1.33
0.954

###

assay.text: AA2734_IC50_IP (Table 4, assay code not explained)
condition.summary: internal assay code
measurement.kind: pIC50
Numbers only, as −log10 of the molar value.

Sample answers from the record:
[
  {
    "molecule": "[2H]c1c([2H])c(C(=O)NC2CC2)c([2H])c(-c2ccc3c(OC(C)C(F)(F)F)nncc3c2)c1C (stereo not drawn)",
    "pIC50": 8.77
  },
  {
    "molecule": "Cc1ccc(C(=O)NC2CC2)cc1-c1ccc2c(-c3cc(F)c(S(C)(=O)=O)cc3C)nncc2c1",
    "pIC50": 8.91
  }
]

query: Quick one: pIC50 of CCNC(=O)c1ccc(C)c(-c2ccc3c(O[C@@H](C)C(F)(F)F)nncc3c2)c1 ?
result: 9.09
